- Test system: Mycobacterium tuberculosis
- assay procedure: Ratio of kcat to Km of Mycobacterium tuberculosis mycothiol reductase
- Set-up: unit not given here
readout kind: kcat/Km
Answers are plain numbers.

Solved entries:
molecule	experimental system	kcat/Km
Cc1cc(O)c2c(c1)C(=O)C(c1c(C)cc3c(c1O)C(=O)C=CC3=O)=CC2=O [DIOSPYRIN]	Mycobacterium tuberculosis	3.57e+07
CC1=CC(=O)c2ccccc2C1=O [MENADIONE]	Mycobacterium tuberculosis	1.52e+07
O=C1C=CC(=O)c2ccccc21 [NAPHTHOQUINONE]	Mycobacterium tuberculosis	3.36e+07

Kindly give each listed record's kcat/Km.
1. Cc1cc(O)c2c(c1)C(=O)C=CC2=O [RAMENTACEONE]
2. Cc1cc(O)c2c(c1)C(=O)C=C(c1c(C)cc(O)c3c1C(=O)C=CC3=O)C2=O [NEODIOSPYRIN]
3. CC(=O)Oc1cc(C)cc2c1C(=O)C=CC2=O
4. Cc1cc(O)c2c(c1Cl)C(=O)C=CC2=O
5. Cc1cc(Cl)c2c(c1O)C(=O)C=CC2=O

1: 9.31e+07; 2: 4.88e+07; 3: 8.15e+07; 4: 9.1e+06; 5: 1.64e+08

Quick check: kcat/Km on Mycobacterium tuberculosis, item `COc1cc(C)c(Cl)c2c1C(=O)C=CC2=O` ?
3.3e+06
